Give Percent Effect for every item shown.
molecular target: Ubiquitin-activating enzyme e1, putative (Leishmania donovani (strain BPK282A1)); assay: Leishmania donovani Ubiquitin Activating Enzyme (LdE1); type: functional; set-up: scale not given: direction of the effect not stated beside the values; conditions: 30 µM
Entries with a potency or affinity are not part of this list.
One number for each entry, in %.

Please review the entries below; each comes with its answer.
Cc1cc(C)n(C2CN(CC(O)c3ccc4c(c3)OCO4)C2)n1 (centres undefined) ... -13
O=C(c1cccnc1)N1CCC2(CC1)CCN(c1ccsc1)C2=O ... -2.6
O=C(Nc1nc2c(s1)CCC2)c1cccnc1N1CCOCC1 ... -2.63
CN1CCCC1CNC(=O)c1nnn(-c2ccc(F)cc2)c1C1CC1 (centres undefined) ... 0
N#Cc1ccc(N2CCN(C(=O)c3cc(C4CC4)[nH]n3)CC2)c(F)c1 ... 8.11

Look up Percent Effect for the entries below, preserving their order.
1. O=C(Cc1ccsc1)N1CCn2cc(CN3CCCC3)nc2C1
2. O=C(c1ccoc1)N1CC[C@@H]2O[C@H](COCc3ccccn3)CC[C@@H]21

1. 8.22
2. 8.11

Give Percent Effect for each of the items listed below.
1. CCOCCCNc1nc(O)cc(C2CC(=O)N(C)C2)n1 (centres undefined)
2. CCc1nc(NCC(=O)N2CCOCC2)c2c(n1)c(C)nn2CC
3. O=C(NCC(Cc1cccc(F)c1)N1CCCC1=O)c1ccccc1 (centres undefined)

[6.76, 6.67, -5.48]

Working through the 8 compounds below one at a time, give Percent Effect for each.
1. O=C(O)C(c1ccc2c(c1)OCCO2)N1CCCCCC1 (centres undefined)
2. COc1ccc(Cc2nnc(SC)o2)cc1OC
3. CC(C)OCc1ncn2c1CN(Cc1cccs1)CCC2
4. Cc1noc(C)c1C(=O)NCC(C)N(C)C (centres undefined)
5. O=C(c1cccnc1)N1CCc2ncnc(C3CCOC3)c2CC1 (centres undefined)
6. COCCN1CCN(CCCS(=O)(=O)c2ccccc2)CC1C (centres undefined)
7. CC(NC(=O)COc1ccc(F)cc1)c1nnc2n1CCCCC2 (centres undefined)
8. CC(Cn1ccnc1)NC(=O)NCCNC(=O)C(C)C (centres undefined)

5.33
0
-2.7
16.2
10.7
-5.41
16.2
23.7

Required: Percent Effect, one value per compound below.
1. CCN(CCC(F)(F)F)C(=O)Nc1cccc(N2CCOCC2)c1
2. c1ccc(-c2nnn3c2COC(CNCC2CCOCC2)C3)cc1 (centres undefined)
3. O=C(NCC1CC1)[C@H]1C[C@H]2OCC[C@H]2N(Cc2ccoc2)C1
4. O=C(c1cncc(Br)c1)N1CCC(O)(Cn2ccc3ccncc32)CC1
5. CN(Cc1ccccc1O)C(=O)NC1CCCN(c2ncccn2)C1 (centres undefined)
6. CCOC(=O)N1CCN(Cc2ccc(OCc3nccn3C)cc2)CC1

1: 5.41; 2: 8; 3: 21.6; 4: 1.35; 5: 15.8; 6: 23.4

* * *

species on record: Homo sapiens; experiment: To identify inhibition of the IFN signalling (Jak-Stat) pathway via expression of an eGFP reporter gene under the control of an IFN-stimulated response element (ISRE) containing MxA promoter.; assay type: functional; design: scale not given: direction of the effect not stated beside the values; settings: 30 µM
Field: Percent Effect. Provide a value for each of the molecules that follow.
Numbers only, in %.

COc1ncccc1NC(=O)N(Cc1ccc(C)o1)C1CC1 ... 56.7
NC(=O)c1ccc(N2CCCCC2)c(NC(=O)c2cncc(Br)c2)c1 ... 35.7
NC(=O)NCC1CCCCN1C(=O)c1cccc(C(F)(F)F)c1 (centres undefined) ... -1.19
CNc1cc(CNC(=O)c2ccccn2)nc(-c2ccncc2)n1 ... 2.78
CCC(C)(C)NC(=O)Cn1nc(C)nc1-c1cccc(C)c1 ... 14.5

// for each molecule in input: emit Percent Effect
1. Cc1ccc(F)c(C(=O)N2CCN(S(C)(=O)=O)[C@@H](C)C2)c1
2. CSCCC(CO)NC(=O)c1sc(-c2ccccc2Cl)nc1C (centres undefined)
3. Cc1cnn(CC2CCCN2Cc2ncc(-c3ccccc3)o2)c1 (centres undefined)
4. CC(=O)Nc1cccc(C(=O)Nc2cnc3n2CCCC3)c1

[8.46, 6.86, 10.7, 17.5]

* * *

tested on: Trypanosoma cruzi; test: Trypanosoma cruzi phosphomannomutase and mannose-1-phosphate guanylyltransferase assay; assay type: functional; set-up: scale not given: direction of the effect not stated beside the values; conditions: 10 µM
observable: Percent Effect (%)
Numbers only, in %.

Cc1nc(O)cc(C2CCN(Cc3cccc(F)c3F)C2)n1 (stereo not drawn) ... 1.19

Dear colleague, could you please provide Percent Effect for the molecules listed below?
1. Cc1oc(C)c(C(=O)NCc2cccnc2N(C)C)c1C
2. Cn1cc(CN2CCCN(C(=O)c3ccc4c(c3)COC4)CC2)cn1

-3.57
-3.27

Give Percent Effect for each of the items listed below.
1. NC(=O)C1(Cc2ccccc2-c2ccccc2)CCCN(CC2CC2)C1 (stereo not drawn)
2. O=C(CCc1nccs1)N1CCCC(N2CCNC2=O)C1 (stereo not drawn)
3. Cc1ccc(NC2CCN(C(=O)CC3CCCO3)CC2)nn1 (stereo not drawn)
4. O=C(CC1CC1)N1CCC2(CC1)CN(c1ncccn1)CCO2
5. COc1ccc(-c2nnc(SCC(=O)NCC(C)C)[nH]2)c(OC)c1
6. COCCOc1ccc(NC(=O)C2CCCN(C(N)=O)C2)cn1 (stereo not drawn)
7. Cc1ccc(CN(Cc2cccnc2)C2CC(C)(C)NC(C)(C)C2)s1
8. COc1ncccc1C(=O)NCC1Cc2ccccc2O1 (stereo not drawn)

[3.15, -2.35, -2.17, -6.89, 4.97, -6.33, -3.36, -1.76]

* * *

target: Arginase-2, mitochondrial (Homo sapiens) (UniProt P78540); test: in vitro enzyme assay to detect the production of urea directly proportional to the activity of Arginase II; type: functional; set-up: scale not given: in the data most compounds retested in dose-response had high values; conditions: 33.3 µM
Sequence (P78540 whole entry): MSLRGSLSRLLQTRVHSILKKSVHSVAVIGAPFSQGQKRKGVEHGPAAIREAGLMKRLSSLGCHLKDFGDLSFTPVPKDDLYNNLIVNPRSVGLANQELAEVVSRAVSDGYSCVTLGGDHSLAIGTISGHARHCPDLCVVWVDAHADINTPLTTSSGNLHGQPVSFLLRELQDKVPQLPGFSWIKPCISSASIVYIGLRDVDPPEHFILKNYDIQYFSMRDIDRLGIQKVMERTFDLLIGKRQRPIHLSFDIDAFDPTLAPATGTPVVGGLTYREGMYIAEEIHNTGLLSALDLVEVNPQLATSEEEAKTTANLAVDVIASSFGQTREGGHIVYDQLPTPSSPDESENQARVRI
Give Percent Effect for every item shown.
Answers are plain numbers, in %.

Please report Percent Effect for every entry that follows.
1. Cc1ccsc1[C@@H]1CCN(C(=O)c2cc3ccccc3[nH]2)C[C@H]1O
2. Oc1cc(CCC2CCCCN2)cc(-c2ccncc2)c1 (stereo unspecified)
3. Cc1ccc(C2CCCN2Cc2nc3c(cnn3C)c(=O)[nH]2)cc1C (stereo unspecified)
4. CC(=O)N1CC(Cc2nccc3ccn(C)c23)C1

-0.442
0.909
-1.52
3.96

Lab note: each compound below needs its Percent Effect filled in.
1. CS(=O)(=O)N1CCC(C(=O)NCCNc2ncccn2)CC1
2. Cc1ccc(NS(=O)(=O)CC2=NC(=O)n3cccc3C2=O)cc1
3. Cc1ccc(CNC(=O)N2CCCCC2CCNS(C)(=O)=O)cc1 (stereo unspecified)
4. CC1(C)CC(N2Cc3nc(N4CCOCC4)ncc3C2=O)CC(C)(C)N1
5. O=C(CN1CCCC1Cn1cncn1)NCCOc1cccc(F)c1 (stereo unspecified)
6. CC(=O)NCC(=O)N1CC[C@H](OCC2CC2)[C@@H]1Cc1cccnc1

-7.21
-3.7
-15.2
2.76
-2.52
-50

Let me know recorded Percent Effect for Cc1cc(C)n(CC2CN(CCOc3cccc(C#N)c3)CCO2)n1 (stereo unspecified) , thanks.
-0.719

* * *

biological target: Tyrosyl-tRNA synthetase, putative (Trypanosoma cruzi (strain CL Brener)); assay: Trypanosoma cruzi tyrosyl tRNA synthetase (TcYRS) SOP; type: functional; design: scale not given: direction of the effect not stated beside the values; settings: 30 µM
observable: Percent Effect (%)
Answers are plain numbers, in %.

COCCNC(=O)[C@H]1C[C@@H]2CCN(c3nncs3)C[C@H]2O1 ... 6.1
CC(C(=O)NCc1ccnc(N(C)C)c1)n1cncn1 (stereo not drawn) ... 9.76
CC1CCCCN1c1nc2c(c(=O)[nH]1)CCN(Cc1cccnc1)C2 (stereo not drawn) ... 14.3

List Percent Effect for every entry below, keeping the order given.
1. CC(C)CNC(=O)[C@H]1CCS(=O)(=O)[C@@H]2CN(Cc3cccc(Cl)c3)C[C@H]12
2. Cc1ccc(CC(=O)NC(C)C(=O)N2CCS(=O)(=O)CC2)cc1 (stereo not drawn)
3. Cc1csc(N2CCCN(C(=O)C3(C#N)CCCCC3)CC2)n1
4. CCc1cnc(N2C[C@H]3C[C@H](C(=O)N(C)C)[C@@H](C2)O3)nc1
5. Cc1cc(C)n(CC2CCCN2C(=O)c2cc[nH]n2)n1 (stereo not drawn)
6. Cc1nn(C)c(C)c1C1CCCN1C(=O)CCCn1cccn1 (stereo not drawn)
7. Cc1csc(N2CCN(C(=O)CCn3cncn3)CC2)n1

1. 1.22
2. 2.44
3. -2.44
4. 10
5. 17.7
6. -6.17
7. 21.5

* * *

Can you tell me Percent Effect for the items I'm about to list?
target: Arginase-2, mitochondrial (Homo sapiens) (UniProt P78540); assay: in vitro enzyme assay to detect the production of urea directly proportional to the activity of Arginase II; assay type: functional; parameters: scale not given: in the data most compounds retested in dose-response had high values; settings: 33.3 µM
Give bare numbers, in %.

Use these answered entries as a reference point.
CCc1cnc(CNc2ccc(C(=O)N3CCCC(C)C3)cc2C)o1 (stereo not drawn) ... -1.78
CN(C)C(=O)N1C[C@@H]2CC[C@H](C1)N(Cc1ccc3nsnc3c1)C2 ... 4.42
Cc1nn(C)c(C)c1C1CCCN1Cc1nc(-c2ccco2)oc1C (stereo not drawn) ... 3.14

Respectfully, I request Percent Effect for each entry included below.
1. CC(=O)NCCc1ccc(S(=O)(=O)N(CC(C)C)C(C)C)s1
2. CN(C)CCNC(=O)c1ccc(OC2CCN(S(C)(=O)=O)CC2)c(Cl)c1
3. Cc1nc(C)n(CC2CCCN(c3ncnc4[nH]ccc34)C2)n1 (stereo not drawn)
4. NC(=O)c1cnn2c1NCC(CNCCCOc1ccccc1F)C2 (stereo not drawn)
5. CCC1=N[C@@]2(CC[C@@H]3CN(C(=O)Nc4ccc(F)cc4)C[C@@H]32)C(=O)N1
6. Cn1ccnc1COc1ccc(CO)cc1

-0.883
3.23
0.645
-1.15
-2.5
8.19

Return reported Percent Effect values for all items listed beneath this line.
1. CC(=O)c1cccc(OCCCC(=O)N(C)CCc2ccncc2)c1
2. Cc1nc(CNC(=O)NCC(O)c2cccc(Cl)c2)cs1 (stereo not drawn)
3. CC(C)(C)C(=O)NCCC(=O)NS(=O)(=O)c1ccc2c(c1)OCCO2
4. CNC(=O)CN1CCC(NC(=O)N(C)Cc2cc(C)on2)CC1
5. COCCc1noc(CN2CCc3nn(C(C)C)c(=O)cc3C2)n1
6. COCCNC(=O)[C@H]1C[C@@H]2CCN(c3nncs3)C[C@H]2O1

-1.91
-4.29
-0.909
0.632
0.719
1.67

Give Percent Effect for each listed item.
1. CC(C)Oc1cc(N2CCC(N3CCC(O)CC3)CC2)nc(N)n1
2. COc1cc2cc(C(=O)O)n(C)c2c(OC)c1OC
3. Cc1ccc(CN2CC(C(=O)Nc3ccccc3)C3(CCOCC3)C2)s1 (stereo not drawn)
4. Cc1cc(C)nc(NC(=O)C(C)Oc2ccc3c(c2)OCO3)n1 (stereo not drawn)
5. CC(C)Oc1ccccc1C1CC(=O)Nc2c1cnn2C (stereo not drawn)

1: -0.476; 2: -5.46; 3: -44.3; 4: 0; 5: -7.1

Batch of 2 molecules: report Percent Effect for each.
1. CC(C)c1nnc2n1CCN(C(=O)c1ccc(CN(C)C)cc1)C2
2. CC(C)(O)CN1CCN(C(=O)c2cc3ccccc3c(=O)[nH]2)CC1

[1.47, -2.37]

Give the reported value of Percent Effect for this record: NC(=O)C1CCN(C(=O)CCn2ccc3cc(Br)ccc32)CC1
14.6
